Molecular target: T1, HLA-A*0201 molecule on human T2 cells (human)
T1 construct: read out with anti-HLA-A2 antibody BB7.2-PE; also called HLA-A2
Test: T2 cells expressing HLA-A*0201, anti-HLA-A2-PE, FACS
PROPERTY_NAME: mean relative fluorescence intensity at 100 µM peptide

{"BINDER": "LMDLSTTEV [FOXM1-B2]", "RESULT": "105 % of HIV peptide"}
{"BINDER": "GLLGEFLQI (also called B1RC5-B3) [BIRC5-B3]", "RESULT": "35 % of HIV peptide"}
{"BINDER": "LMDLSTTPL (Fragment of human FOXM1) [FOXM1-H2]", "RESULT": "77.6 % of HIV peptide"}
{"BINDER": "FLVEDETVI [EZH2-B]", "RESULT": "94.9 % of HIV peptide"}
{"BINDER": "LLLSAALSV [CHI3L1B]", "RESULT": "58.9 % of HIV peptide"}
{"BINDER": "VLEELLWFI (Fragment of human TYMS) [TYMS-H]", "RESULT": "50.2 % of HIV peptide"}
{"BINDER": "SMEELLWFV [TYMS-B]", "RESULT": "80.9 % of HIV peptide"}
{"BINDER": "YTLGEFLYI [BIRC5-B2]", "RESULT": "58 % of HIV peptide"}
